System: PC3 cells
Assay: Cell viability assay (MTT)
Assay type: cell-based, human
Details: 72 h incubation, OD 570 nm, read-out: EC50 (cytotoxicity)
Experimental: PC3 cells (3000–5000 cells/well) were seeded onto a 96-well plate. […] The relative number of viable cells was determined by an assay using 3-(4,5-dimethylthiazol-2-yl) -2,5-diphenyltetrazolium bromide (MTT) (Sigma-Aldrich, Saint-Louis, MO, USA), according to the manufacturer’s instructions, on a microplate reader at OD 570 nm. […]
pEC50: −log10 of the molar value.
Quantity name: pEC50

Could you share which pEC50 value was measured for CCCCCCCCc1ccc(CCC(CO)(CO)NC(=O)OCc2ccc(NC(=O)[C@H](CCCNC(N)=O)NC(=O)[C@@H](NC(=O)CCOCCOCCOCCN=[N+]=[N-])C(C)C)cc2)cc1 [Compound 10, Val-Cit-pABOC-FTY720] ?
< 4.82
